- measuredTarget: FGFR2 (Homo sapiens, UniProt P21802)
- Construct: made in house; host or cells: E. coli derived from BL21, infected with T7 phage
- Sequence (P21802 22-821): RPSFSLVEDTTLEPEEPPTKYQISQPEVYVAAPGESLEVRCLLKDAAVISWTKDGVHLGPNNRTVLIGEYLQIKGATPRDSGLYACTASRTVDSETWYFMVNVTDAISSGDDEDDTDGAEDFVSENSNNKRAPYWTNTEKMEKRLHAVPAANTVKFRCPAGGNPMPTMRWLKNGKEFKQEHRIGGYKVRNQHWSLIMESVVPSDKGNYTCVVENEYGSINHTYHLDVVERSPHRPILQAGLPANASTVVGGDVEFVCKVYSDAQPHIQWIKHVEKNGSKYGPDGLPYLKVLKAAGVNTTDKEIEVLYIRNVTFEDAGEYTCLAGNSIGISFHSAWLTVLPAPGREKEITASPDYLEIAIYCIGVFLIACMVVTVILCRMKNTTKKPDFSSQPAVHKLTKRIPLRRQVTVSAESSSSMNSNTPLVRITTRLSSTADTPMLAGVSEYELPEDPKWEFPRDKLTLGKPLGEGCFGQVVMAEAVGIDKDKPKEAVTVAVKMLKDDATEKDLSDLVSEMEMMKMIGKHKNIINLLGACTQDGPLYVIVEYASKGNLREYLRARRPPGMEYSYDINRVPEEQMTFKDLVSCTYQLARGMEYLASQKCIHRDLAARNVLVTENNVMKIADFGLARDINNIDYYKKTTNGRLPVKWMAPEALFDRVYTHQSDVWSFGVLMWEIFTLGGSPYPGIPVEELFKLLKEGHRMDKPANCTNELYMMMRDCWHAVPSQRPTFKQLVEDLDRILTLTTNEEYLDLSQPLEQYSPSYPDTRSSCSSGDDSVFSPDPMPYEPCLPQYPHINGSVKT
- assayProtocol: Kinase binding assay (kinase-tagged T7 phage, affinity beads, qPCR readout), FGFR2
- conditionSummary: FGFR binding data
readoutLabel: Kd

Qu. Determine from records and report Kd for `C=CC(=O)Nc1ccc2c(-c3nc(Nc4ccc(N5CCOCC5)c(OC)c4)ncc3Cl)cn(C)c2c1`
Ans. 0.1 to 100 nM

Qu. Tell me measured Kd for `C=CC(=O)Nc1ccc2c(-c3nc(Nc4cnn(CCO)c4)ncc3C)cn(C)c2c1` please.
Ans. 0.1 to 100 nM

Qu. Tell me Kd reported for `C=CC(=O)Nc1ccc2c(-c3ccnc(Nc4cc(C)[nH]n4)n3)cn(C)c2c1`
Ans. > 1000 nM

Qu. Please list Kd recorded for the compound `C=CC(=O)Nc1ccc2c(-c3nc(Nc4cn(CC)nc4C)ncc3F)cn(C)c2c1`
Ans. 0.1 to 100 nM

Qu. Query Kd for `C=CC(=O)Nc1ccc2c(c1)c(C)cn2-c1nc(Nc2ccn(C3CC3)n2)ncc1C`
Ans. 0.1 to 100 nM

Qu. Complete the entry with Kd for `C=CC(=O)Nc1ccc2c(c1)c(C)cn2-c1nc(Nc2cnn(CC(C)(C)O)c2)ncc1F`
Ans. 0.1 to 100 nM

Qu. Kindly indicate its recorded Kd. Item: `C=CC(=O)Nc1ccc2c(-c3nc(Nc4cn(CC(F)F)nc4C)ncc3F)cn(C)c2c1`
Ans. 0.1 to 100 nM

Qu. Give the reported value of Kd for this record: `C=CC(=O)Nc1ccc2c(c1)c(C)cn2-c1nc(Nc2cccnc2C)ncc1F`
Ans. 100 to 250 nM

* * *

- measuredTarget: FGFR1 (Homo sapiens, UniProt P11362)
- Construct: made in house; host or cells: E. coli derived from BL21, infected with T7 phage
- Sequence (P11362 22-822): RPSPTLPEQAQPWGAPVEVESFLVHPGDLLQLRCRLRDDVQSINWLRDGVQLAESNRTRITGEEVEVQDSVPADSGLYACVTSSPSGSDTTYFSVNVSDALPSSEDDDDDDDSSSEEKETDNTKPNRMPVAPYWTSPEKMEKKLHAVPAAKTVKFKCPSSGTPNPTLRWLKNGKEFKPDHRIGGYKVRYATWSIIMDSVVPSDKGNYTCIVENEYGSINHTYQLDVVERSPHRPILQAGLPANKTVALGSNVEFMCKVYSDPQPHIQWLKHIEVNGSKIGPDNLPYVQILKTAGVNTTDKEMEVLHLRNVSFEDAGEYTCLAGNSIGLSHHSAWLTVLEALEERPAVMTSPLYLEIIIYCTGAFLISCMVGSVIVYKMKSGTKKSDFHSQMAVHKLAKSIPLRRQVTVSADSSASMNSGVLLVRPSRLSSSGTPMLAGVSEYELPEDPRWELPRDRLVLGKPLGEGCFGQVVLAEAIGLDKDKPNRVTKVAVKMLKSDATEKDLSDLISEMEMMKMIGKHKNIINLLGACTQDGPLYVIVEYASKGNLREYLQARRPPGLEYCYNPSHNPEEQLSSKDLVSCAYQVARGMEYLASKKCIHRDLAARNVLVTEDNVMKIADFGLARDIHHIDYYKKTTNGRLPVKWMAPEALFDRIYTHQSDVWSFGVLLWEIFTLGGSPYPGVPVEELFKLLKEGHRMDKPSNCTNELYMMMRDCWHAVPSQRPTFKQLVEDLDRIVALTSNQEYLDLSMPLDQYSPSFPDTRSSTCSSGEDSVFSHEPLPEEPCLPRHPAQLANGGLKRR
- assayProtocol: Kinase binding assay (kinase-tagged T7 phage, affinity beads, qPCR readout), FGFR1
- conditionSummary: FGFR binding data
Kindly supply the reported Kd values for the records listed here.

Qu. Answer with the recorded Kd for the compound listed here: C=CC(=O)Nc1ccc2c(c1)c(C)cn2-c1nc(Nc2c(C)nn(C)c2C)ncc1Cl [Example 41]
Ans. 100 to 250 nM

Qu. Read the entry C=CC(=O)Nc1ccc2c(c1)c(C)cn2-c1nc(Nc2cn(CC(F)(F)F)nc2C)ncc1F [Example 165] and write its reported Kd.
Ans. 0.1 to 100 nM

Qu. Give recorded Kd. C=CC(=O)Nc1ccc2c(c1)c(C)cn2-c1nc(Nc2cnn(C)c2C)ncc1C [Example 147]
Ans. 0.1 to 100 nM

Qu. Entry C#CC(=O)Nc1cnc2c(c1)c(C)cn2-c1nc(Nc2cnn(CCO)c2)ncc1C [Example 141] needs its Kd filled in; supply it.
Ans. 0.1 to 100 nM

Qu. Identify measured Kd corresponding to C=CC(=O)Nc1ccc2c(c1)c(C)nn2-c1nc(Nc2ccnn2C)ncc1F [Example 76]
Ans. > 1000 nM

Qu. Report Kd for CCC(=O)Nc1ccc2c(ccn2-c2nc(Nc3ccc(N4CCN(C)CC4)cc3)ncc2Cl)c1 [Example 4]
Ans. 0.1 to 100 nM

Qu. Complete the entry with Kd for C=CC(=O)Nc1ccc2c(ccn2-c2nc(Nc3ccc(OCCN4CCOCC4)cc3)ncc2Cl)c1 [Example 10]
Ans. 100 to 250 nM

Qu. Dear colleague, please send me the reported Kd for C=CC(=O)Nc1ccc2c(c1)c(C)cn2-c1nc(Nc2cnn(C[C@@H](C)O)c2)ncc1F [Example 185] when you can.
Ans. 0.1 to 100 nM

Qu. Return reported Kd. Input compound: C=CC(=O)Nc1ccc2c(c1)c(C)cn2-c1nc(Nc2cc(C)n(C)n2)ncc1C [Example 102]
Ans. 0.1 to 100 nM

Qu. Indicate the recorded Kd value for this compound: C=CC(=O)Nc1ccc2c(c1)c(C)cn2-c1nc(Nc2cn(CCO)nc2C)ncc1F [Example 176]
Ans. 0.1 to 100 nM

Qu. Please look at this compound and report its Kd: C=CC(=O)Nc1ccc2c(ccn2-c2nc(Nc3ccccc3OCCN3CCOCC3)ncc2Cl)c1 [Example 13]
Ans. > 1000 nM

Qu. Return the recorded Kd value; entry: C=CC(=O)Nc1ccc2c(-c3ccnc(Nc4cnn(CCO)c4)n3)cn(C)c2c1 [Example 106]
Ans. 0.1 to 100 nM

Qu. Supply recorded Kd for C=CC(=O)Nc1ccc2c(-c3nc(Nc4ccc(N5CCN(C)CC5)nc4)ncc3Cl)cn(C)c2c1 [Example 59] here.
Ans. 0.1 to 100 nM

Qu. // fetch Kd given entry C=CC(=O)Nc1ccc2c(-c3ccnc(Nc4cc(C)[nH]n4)n3)cn(C)c2c1 [Example 111]
Ans. > 1000 nM

Qu. Consider the compound C=CC(=O)Nc1ccc2c(c1)c(C)cn2-c1nc(Nc2ccc(OC)c(OC)c2)ncc1Cl [Example 23] . State its measured Kd.
Ans. 0.1 to 100 nM

Qu. State its Kd: Cc1cn(-c2nc(Nc3cnn(C[C@H](C)O)c3)ncc2F)c2ncc(NC(=O)/C=C/CN(C)C)cc12 [Example 196]
Ans. 0.1 to 100 nM

Qu. Tell me its Kd given C=CC(=O)Nc1ccc2c(-c3ccnc(Nc4cnn(C(F)F)c4)n3)cn(C)c2c1 [Example 188] as the entry.
Ans. 0.1 to 100 nM

Qu. Fill in Kd for record C=CC(=O)Nc1ccc2c(c1)c(C)cn2-c1nc(Nc2ccc(N3CCOCC3)cc2)ncc1C#N [Example 38]
Ans. 0.1 to 100 nM

Qu. Determine from records and report Kd for C=CC(=O)Nc1cnc2c(c1)c(C)cn2-c1nc(Nc2ccn(CC)n2)ncc1C [Example 114]
Ans. 0.1 to 100 nM

Qu. Fill in reported Kd for this entry: Cc1cn(-c2nc(Nc3cnn(CCO)c3)ncc2F)c2ccc(NC(=O)/C=C/CN(C)C)cc12 [Example 144]
Ans. 0.1 to 100 nM

Qu. State, in one line, measured Kd of C=CC(=O)Nc1ccc2c(c1)c(C)cn2-c1nc(Nc2ccn(C3COC3)n2)ncc1C [Example 120]
Ans. 0.1 to 100 nM

Qu. Return reported Kd. Input compound: C=CC(=O)Nc1ccc2c(-c3ccnc(Nc4cnn(CC5CC5)c4)n3)cn(C)c2c1 [Example 105]
Ans. 0.1 to 100 nM

Qu. # return recorded Kd for input C=CC(=O)Nc1ccc2c(c1)c(C)cn2-c1nc(Nc2cn(C)nc2C)ncc1Cl [Example 35]
Ans. 0.1 to 100 nM

Qu. Annotate the compound CC#CC(=O)Nc1ccc2c(c1)c(C)cn2-c1nc(Nc2ccnn2C)ncc1C [Example 130] with its measured Kd.
Ans. > 1000 nM

Qu. Read off the recorded Kd for C=CC(=O)Nc1ccc2c(-c3ccnc(Nc4ccn(C)n4)n3)cn(C)c2c1 [Example 92]
Ans. 100 to 250 nM

Qu. Find the measured Kd of C=CC(=O)Nc1ccc2c(-c3nc(Nc4ccnn4C)ncc3Cl)cn(C)c2c1 [Example 62] and report it.
Ans. 250 to 1000 nM

Qu. For the compound C=CC(=O)Nc1ccc2c(c1)c(C)cn2-c1nc(Nc2cccc(CN3CCOCC3)c2)ncc1Cl [Example 78] , give its measured Kd value.
Ans. 0.1 to 100 nM

Qu. Supply Kd value. Item: C#CC(=O)Nc1ccc2c(c1)c(C)cn2-c1nc(Nc2ccnn2C)ncc1F [Example 138]
Ans. 100 to 250 nM

Qu. Please report Kd for the following compound: C=CC(=O)Nc1ccc2c(c1)c(C)cn2-c1nc(Nc2cnn(CC3(O)CC3)c2)ncc1F [Example 175]
Ans. 0.1 to 100 nM

Qu. Report Kd, nothing else, for this compound: C=CC(=O)Nc1ccc2c(c1)c(C)cn2-c1nc(Nc2ccn(C3CC3)n2)ncc1C [Example 99]
Ans. 0.1 to 100 nM

Qu. Tell me measured Kd for C=CC(=O)Nc1ccc2c(-c3ccnc(Nc4cnn(C)c4)n3)cn(C)c2c1 [Example 201] please.
Ans. 0.1 to 100 nM

Qu. For the compound C=CC(=O)Nc1ccc2c(c1)c(C)cn2-c1nc(Nc2ccccc2OCC)ncc1C#N [Example 39] , give its reported Kd.
Ans. > 1000 nM

Qu. Give the value of Kd reported for the following: C=CC(=O)Nc1ccc2c(c1)c(C)cn2-c1nc(Nc2cn(CC(C)(C)O)nc2C)ncc1F [Example 182]
Ans. 0.1 to 100 nM
